# Tested on: NCI-H522 lung
# PROTOCOL NOTES: NCI-60 one-dose screen, 48 h
# CONDITION: 10 µM unless noted
Compounds without any hit were thinned out: in the full panel of roughly 83,000, 20% have a hit. Calls of active or inactive are those of the source. Rule for the calls: active = growth percent below 10; inactive = the rest.
Can you answer with just one of these options? TRUE for active, FALSE for inactive

COMPOUND	GROUP
CCNS(=O)(=O)c1ccc(C)cc1	FALSE
CC1=C(C(=O)Nc2ccc(F)cc2)C(c2ccc(Cl)cc2)C2=C(CC(C)(C)CC2=O)N1 (stereo unspecified)	FALSE
CCCCN(CCCC)CCC(O)c1cc2ccc(C(F)(F)F)cc2c2cc(C(F)(F)F)ccc12 (stereo unspecified)	TRUE

Q: Per the assay record, what outcome was assigned to `COc1cc(C)cc2oc3oc(=O)c(-c4csc(-c5cc6ccccc6oc5=O)n4)cc3c(=O)c12` ?
Ans: FALSE

Q: Outcome logged for CCC(C)C1NC(=O)c2nc(oc2-c2ccccc2)-c2csc(n2)-c2csc(n2)-c2nc(oc2C)-c2coc(n2)CNC(=O)C(C(C)CC)NC1=O (stereo unspecified) in this assay:
Ans: TRUE

Q: So what was the verdict on `NC(=S)N/N=C(/c1cccs1)C1CC1` in this test?
Ans: FALSE
